# System: A498 renal
# test_details: NCI tumour cell line growth inhibition, 48 h
property_name: TGI

# count of solved cases: 2
compound | TGI
C=C1CCN2CC[C@@H](OC(=O)/C(C)=C\C)[C@@H]12 | > 100 µM
Nc1nc(-c2ccccc2)nc2oc(-c3cccs3)nc12 | > 100 µM

Problem: Find the recorded TGI belonging to CC(=O)/C=C/C1=C(C)CCCC1(C)CC(C)C (stereo not given) and report it.
Solution: > 100 µM

Problem: Find the recorded TGI belonging to C/C(CCn1[nH]c(=O)ccc1=O)=N\NC(=O)C(=O)NN and report it.
Solution: > 100 µM
